# Tested on: Cy3-GAF-DBD / GAF-DBD (Drosophila melanogaster), Q08605-2
# Sequence: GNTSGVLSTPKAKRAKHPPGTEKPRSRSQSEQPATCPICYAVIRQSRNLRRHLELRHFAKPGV
# experiment_description: smFRET
# stated_conditions: from koff/kon; dwell 3.1 s; 6.25 mM Mg2+; 12.5 mM HEPES-KOH pH 7.6, 0.05 mM EDTA, 6.25 mM MgCl2, 5% glycerol, 50 mM NaCl, 50 ug/ml BSA, 0.05% NP-40; EMSA at room temperature; smFRET adds dextrose …
measurement_label: Kd (nM)

{"ordered_residues": "GTTTTGTGAGTACGCGCTGTTGTACTATTGTTAACCCACAAGGTCGCACAGTAAACGGCACACTGTACGTGTTGCTTCGAGAGAGCGCGC (double strand) [Cy5-cognate DNA 90 bp]", "target_or_system": "Cy3-GAF-DBD / GAF-DBD (Drosophila melanogaster), Q08605-2", "measurement_label": "Kd", "value": 11.5}

FYI, the data here is from paper PMC12618267.
